Data origin: the nanobody polyreactivity screen of Harvey et al. (2022)

- test-method-notes: yeast display, Sf9 membrane polyspecificity reagent, FACS + sequencing; frameworks hold sequencing errors
assay-readout: polyreactivity (PSR sort gate)

Here is how some sequences turned out for polyreactivity (PSR sort gate).
- seq-string: "QVQLVESGGGLVQAGGSLRLSCAASGRIFYNYAMGWYRQAPGKERELVAAISGSGGSTYYADSVKGRFTISRDNAKNTVYLQMNSLTPEDTAVYYCSTSGPQYYSRNFDYWGQGTQVTVSS"
  polyreactivity (PSR sort gate): "low polyreactivity"
- seq-string: "QVQLVESGGVLVQAGGSLRLSCAASGRTFYYYAMGWYRQAPGKEREFVAVISGSGANTFYADSVKGRFTISRDNAKNTVYLQMNSLKPEDTAVYYCAARSWEGYGYWGQGTQVTVSS"
  polyreactivity (PSR sort gate): "high polyreactivity"
- seq-string: "QVQLVESGGGLVQAGGSLRLSCAASGIIFPLYMGWDRQAPGTERVLVAAINSIGGRTYYADSVKGRFTISRDNAKNTVYLQMNSLKPEDTAVYYCNAVPVGWRYRQYDYWGQGTQVTVSS"
  polyreactivity (PSR sort gate): "high polyreactivity"
- seq-string: "QVQLVESGGGLVQAGGSLRLSCAASGRTSKVYAMGWYRQAPGTERELVAAITRGNTYYADSVKGRFTISRDNAKNTVYLQMNSLKPEDTAVYYCAADYRYWLSYFKKYDYWGQGTQVTVSS"
  polyreactivity (PSR sort gate): "high polyreactivity"

Task: Recorded polyreactivity (PSR sort gate) of `QVQLVDSGGDLVQAGGSLSLSCAASGRIFVYYAMGWYRQAPGTERELVAVITSVGSTYYADSVKGRFTISRDNAKNTVYLQMNSLKPEDTAVYYCAAEWEYYGFDYWGQGTQVTVSS` , please.
Output: low polyreactivity

Task: `QVQLVESGGGLVQAGGSLRLSCAASGSIFVKNVMGWYRQAPGKERELVAAISSSGGRTYYADSVKGRFTISRDNAKNTVYLQMNSLKPEDTAVYYCNKAYPGRRDGSYDYWGQGTQVTVSS` ?
Output: high polyreactivity

Task: `QVQLVESGGGLVQAGGSLRLSSAASGFTFGSYAMGWYRQAPGKERELVAAIRASGGRTYYADSVKGRFTISRDNAKNTVYLQMNSLKPEDTAVYYCAAQLPMGKRYYYWGQGTQVTVSS` ?
Output: high polyreactivity

Task: `QVQLVESGGGLVQAGGSLRLSCAASGSTLPRYTMGWYRQAPGKERELVAAISFSGSSTYYADSVKGRFTISRDNAKNTVYLQMNSMKPEDTSVYYCRYGYNYWGQGTQVTVSS` ?
Output: high polyreactivity

Task: `QVQLVESGGGLVQAGGSLRLSCAASGFTFYRYGMGWYRQAPGKERELVAAINNDGTTNYADSVKGRFTISRDNAKNTVYLQMNSLKPEDTAVYYCAADYYRGRYSSRYDYWGQGTQVTVSS` ?
Output: low polyreactivity

Task: `QVQLVESGGGLVQAGGSLRLSCAASGITFYVYAMGWYRQAPGKEREFVAAISTRDGTTYADSLKGRFTISRDNAKNTVYLQMNSLKPEDTAVYYCAAAYYYDGQQGDFDYWGQGTQVTVSS` ?
Output: low polyreactivity

Task: `QVQLVDSVGGLVQAGASLRLSCAASGSIFYYYAMGWYREAPGKERELVAAIRYRGGRTYYADSVKGRFTISRDNAKNTVYLQMNSLKPEDTAVYYCNADVIRRGGSRYSSGRDFDYWGQGTQVTVSS` ?
Output: high polyreactivity
